# Test system: HepG2
# Assay: Cytotoxicity against human HepG2 cells assessed as growth inhibition after 48 hrs by MTT assay
# Assay type: functional, cell-based
# Conditions used: HepG2, 48 h
Could you please mark Criterion met for values of IC50 below 20 µM and Criterion not met for values at or above it?

# Molecule, Discrete label
data = [
    ("COc1cc([C@@H]2c3cc4c(cc3C[C@H]3COC(=O)[C@@H]32)OCO4)cc(OC)c1OC(=O)CCC(=O)NCCCCCCNC(=O)Cn1cc(F)c(=O)[nH]c1=O", "Criterion met"),
    ("COc1cc([C@@H]2c3cc4c(cc3C[C@H]3COC(=O)[C@@H]32)OCO4)cc(OC)c1O [4'-DEMETHYLDEOXYPODOPHYLLOTOXIN]", "Criterion met"),
    ("COc1cc([C@@H]2c3cc4c(cc3[C@@H](O[C@@H]3O[C@@H]5CO[C@@H](C)O[C@H]5[C@H](O)[C@H]3O)[C@H]3COC(=O)[C@H]23)OCO4)cc(OC)c1O [ETOPOSIDE]", "Criterion not met"),
    ("COc1cc([C@@H]2c3cc4c(cc3C[C@H]3COC(=O)[C@@H]32)OCO4)cc(OC)c1OC(=O)NCCCNC(=O)Cn1cc(F)c(=O)[nH]c1=O", "Criterion not met"),
    ("COc1cc([C@@H]2c3cc4c(cc3C[C@H]3COC(=O)[C@@H]32)OCO4)cc(OC)c1OC(=O)NCCCCNC(=O)Cn1cc(F)c(=O)[nH]c1=O", "Criterion not met"),
    ("COc1cc([C@@H]2c3cc4c(cc3C[C@H]3COC(=O)[C@@H]32)OCO4)cc(OC)c1OC(=O)N1CCN(C(=O)Cn2cc(F)c(=O)[nH]c2=O)CC1", "Criterion met"),
    ("COc1cc([C@@H]2c3cc4c(cc3C[C@H]3COC(=O)[C@@H]32)OCO4)cc(OC)c1OC(=O)NCCCCCCNC(=O)Cn1cc(F)c(=O)[nH]c1=O", "Criterion met"),
    ("O=c1[nH]cc(F)c(=O)[nH]1 [FLUOROURACIL]", "Criterion not met"),
    ("COc1cc([C@@H]2c3cc4c(cc3C[C@H]3COC(=O)[C@@H]32)OCO4)cc(OC)c1OC(=O)CCC(=O)N1CCN(C(=O)Cn2cc(F)c(=O)[nH]c2=O)CC1", "Criterion met"),
]

Reference source for all entries: ChEMBL document CHEMBL3779802
